Biological target: T1, mouse CADM3 (mouse, UniProt Q99N28 23-396)
T1 construct: Full-length gene expressed transiently on Expi293F cells; also called mouse CADM3/Expi293F cells; Mouse CADM3-expressing cells
T1 sequence: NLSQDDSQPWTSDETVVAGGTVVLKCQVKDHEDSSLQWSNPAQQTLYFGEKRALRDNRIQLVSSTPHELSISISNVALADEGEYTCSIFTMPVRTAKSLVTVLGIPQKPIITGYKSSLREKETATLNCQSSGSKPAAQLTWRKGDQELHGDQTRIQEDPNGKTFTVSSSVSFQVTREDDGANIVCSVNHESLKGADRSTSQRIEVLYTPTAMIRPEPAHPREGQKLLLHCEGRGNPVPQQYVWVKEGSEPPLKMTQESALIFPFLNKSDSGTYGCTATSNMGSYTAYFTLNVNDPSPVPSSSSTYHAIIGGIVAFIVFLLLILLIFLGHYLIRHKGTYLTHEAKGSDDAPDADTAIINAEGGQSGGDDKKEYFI
Experiment: flow cytometry, 10 ug/mL, mouse CADM3/Expi293F vs parent Expi293F cells
Give Mean fluorescence intensity ratio for every item shown.
Give bare numbers.

1. iCADM3_3R1-L11 VHH-hG4PE(R409K) (Fc fusion, VHH-Fc antibody; also called anti-CADM3 VHH-Fc antibody iCADM3_3R1-L11; not shown: Hinge-CH2-CH3 region of the human IgG4 heavy chain constant region (IgG4 variant)) QVQLVESGGGLVQAGGSLRLSCAASGSIFSFNAMGWYRQAPGKQRGLVAVITSGGYTNYADSVKGRFTITRDNAKNTVYLQMNSLKPEDTAVYYCNAEGVYSDYVIMNYWGQGTQVTVSS | 35.5

Field: next binder
Exercise: Name the recorded Mean fluorescence intensity ratio for CADM301 scFv-hG4PE (Fc fusion, also called anti-CADM3 scFv-Fc antibody) VH: QVQLVQSGAEVRRPGTSVKVSCKASGYSFTSYDINWVRLATGQGLEWMGWMNPNTGDTGSPQKFQDRVTMTRDISTGTAYLELRGLKSEDTAIYYCARGFLVTAYTAEFFPHWGQGTLVTVSS VL: SYVLTQPPSVSVAPGKTARLTCGGNNIGSKSVHWYQQRPGQAPVLVINYDSDRPSGIPERFSGSNSENTATLTISRVEAGDEADYYCQVWDSGSDHVVFGGGTQLIIL .
Key: 8.08
